- Tested on: NCI-H522 lung
- experiment summary: NCI tumour cell line growth inhibition, 48 h
Think of 60 µM as a floor: if TGI stands on it or above, it is yes; beneath it, no.

[in] Kindly determine if TGI recorded for CN(C(=O)Cc1cccc(N=C=S)c1)[C@H]1CCCC[C@@H]1N1CCCC1 is above or exactly 60 µM.
[out] no

[in] Same for CCOC(=O)CNC(=O)N(CC)C12CC3CC(CC(C3)C1)C2
[out] yes

[in] Same for Cc1ccc2c3c1O[C@H]1c4[nH]c5ccccc5c4C[C@@]4(O)[C@@H](C2)N(CC2CC2)CC[C@]314
[out] no

[in] Same for Cc1sc2nc(-c3cccc([N+](=O)[O-])c3)c(/C=N/N=C(N)N)n2c1C
[out] no

###

Task for the reader: assign each of the following compounds its reported GI50.
- System: SF-539 CNS
- experiment summary: NCI tumour cell line growth inhibition, 48 h

[in] For COc1cc2oc(-c3ccc(O)cc3)c(OC)c(=O)c2c(O)c1OC , what is its reported GI50?
[out] 44.1 µM

[in] Same for CC(C)c1ccc(-c2cc(-c3cn[nH]c3-c3ccccn3)ccn2)cc1
[out] 25 µM

[in] Same for Cc1cc2ncnn2cc1Nc1ncc2c(n1)n(C1CCOCC1)c(=O)n2C
[out] 9.63 µM

[in] Same for COc1ccc(-c2nc3ccccn3c2/C=C/C(=O)c2cc(OC)c(OC)c(OC)c2)cc1OC
[out] 2.71 µM

[in] Same for COc1ccc(C(=O)c2cc(C)c(OC)c(C)c2)cc1OC(=O)CCl
[out] < 0.01 µM

[in] Same for COc1c(C(=O)/C=C/c2ccccc2)c(O)cc2occc12
[out] 3.22 µM

[in] Same for CN1CCN(CCCNc2nc3ccc(Oc4ccc(NC(=O)Nc5cc(C(F)(F)F)ccc5F)cc4)cc3[nH]2)CC1
[out] 4.22 µM

[in] Same for Nc1nc(Nc2cccnc2)sc1C(=O)c1ccccc1F
[out] 1.52 µM

[in] Same for NC(=O)c1cc(Cl)ccc1NC(=O)/C=C/c1ccccc1
[out] 2.05 µM

[in] Same for CC/C=C\C[C@H](O)C/C=C1/C(=O)C=C[C@@H]1C/C=C\CCCC(=O)OC
[out] 2.75 µM

###

Task for the reader: assign each of the following compounds its reported TGI.
- Tested on: DU-145 prostate
- experiment summary: NCI tumour cell line growth inhibition, 48 h

[in] For N#Cc1[nH]c(=O)n(-c2ccccc2)c1N , what is its reported TGI?
[out] > 10 µM

[in] Same for COC(=O)Nc1nc2ccc(S(=O)(=O)SC)cc2[nH]1
[out] 27.1 µM

[in] Same for N#C[C@@H](c1ccccn1)c1ncccc1[N+](=O)[O-]
[out] > 100 µM

[in] Same for N#C/C(=C/NC(N)=S)C(N)=O
[out] > 100 µM

[in] Same for O=C1NC2O[C@H](CNC(=O)c3cc(Br)c[nH]3)CC2(O)N1 (mixture of isomers)
[out] > 100 µM

[in] Same for COC(=O)Nc1nc2ccc(C3(c4ccc(F)cc4)OCCO3)cc2[nH]1
[out] > 100 µM

[in] Same for Cc1cc2ncnn2cc1Nc1ncc2c(n1)n(C1CCOCC1)c(=O)n2C
[out] > 100 µM

[in] Same for CN1CCN(CCCNc2nc3ccc(Oc4ccc(NC(=O)Nc5cc(C(F)(F)F)ccc5F)cc4)cc3[nH]2)CC1
[out] 12.5 µM

[in] Same for NS(=O)(=O)c1ccc(-c2ccc3c(NC(=O)C4CC4)n[nH]c3c2)cc1
[out] > 25 µM

[in] Same for CN1CCc2nc(N)nc(-c3nc(N)nc4c3CN(C)CC4)c2C1
[out] > 100 µM

[in] Same for CC1(C)/C(=C/N=O)N(O)C(C)(C)N1O
[out] > 100 µM

###

- Tested on: KM20L2 colon
- experiment summary: NCI tumour cell line growth inhibition, 48 h
measured attribute: TGI (µM)
I only need the number, in µM, no unit after it.

[in] For CCCCCCCCCCCC(=O)OCC(C[As](=O)(O)O)OC(=O)CCCCCCCCCCC (stereo not given) , what is its reported TGI?
[out] 20

[in] Same for CN(C)CCC1(C2=CCCC2)CC/C(=C\c2ccc(Cl)cc2)C1=O (stereo not given)
[out] 7.82

###

- System: UACC-257 melanoma
- experiment summary: NCI tumour cell line growth inhibition, 48 h
Task for the reader: assign each of the following molecules its reported TGI.
I only need the number, in µM, no unit after it.

[in] For O=c1cc(NCC(O)CN2CCCC2)n(Cc2ccccc2)c(=O)n1Cc1ccccc1 (centres undefined) , what is its reported TGI?
[out] 85.6

[in] Same for COc1cc2ncnc(-n3ncc4cc(NC(=O)Nc5ccccc5)ccc43)c2cc1OC
[out] 5.13

[in] Same for O=C1c2ccsc2C(=O)c2sc(CO)cc21
[out] 0.0993

[in] Same for CC(=O)C1Cn2c(nc3ccccc32)C[Se]1 (centres undefined)
[out] 5.38

###

- Tested on: SK-MEL-5 melanoma
- experiment summary: NCI tumour cell line growth inhibition, 48 h
measured attribute: TGI

[in] For CCc1cc(Cc2cc(CC)c(NC(=O)C(=O)CC(=O)c3sc(-c4cccnc4)nc3C)c(CC)c2)cc(CC)c1NC(=O)C(=O)CC(=O)c1sc(-c2cccnc2)nc1C , what is its reported TGI?
[out] > 100 µM

[in] Same for COc1ccc(-c2nc3ccccn3c2/C=C/C(=O)c2cc(OC)c(OC)c(OC)c2)cc1OC
[out] 2.92 µM

[in] Same for Cc1ccc(NC(=O)c2cccc(C(C)(C)C#N)c2)cc1Nc1ccc2ncn(C)c(=O)c2c1
[out] 20 µM

[in] Same for O=C(N/N=C/c1cc(Br)ccc1O)N/N=C/c1cc(Br)ccc1O
[out] > 100 µM

###

Task for the reader: assign each of the following compounds its reported GI50.
- System: OVCAR-5 ovarian
- experiment summary: NCI tumour cell line growth inhibition, 48 h

[in] For CC1=CC(=O)C=CC1=O , what is its reported GI50?
[out] 21.4 µM

[in] Same for O=C(Nc1n[nH]c2cc(-c3ccccc3)ccc12)C1CC1
[out] > 25 µM

[in] Same for C/C(=N\Nc1ccc(Cl)cn1)c1ccc2ccccc2n1
[out] 5.44 µM

[in] Same for COc1ccc(C(=O)c2cc(OC)c(OC)c(OC)c2)cc1/C=C/C(=O)c1ccc(F)cc1
[out] 2.67 µM

[in] Same for COc1cc2oc(-c3ccc(O)cc3)c(OC)c(=O)c2c(O)c1OC
[out] > 100 µM

[in] Same for COc1ccc(C[N+](C)(C)N)cc1OC
[out] > 100 µM

[in] Same for Cc1ccc(N=C/C=C(\Nc2ccc(C)cc2)c2ccc(Cl)cc2)cc1
[out] 24.4 µM

[in] Same for Cc1cc2ncnn2cc1Nc1ncc2c(n1)n(C1CCOCC1)c(=O)n2C
[out] 5.81 µM

[in] Same for COc1ccc2[nH]c3c4[nH]c5ccc(OC)cc5c4c4c(c3c2c1)C(=O)NC4=O
[out] > 25 µM

[in] Same for COc1cc(Cc2nccc3cc(OC)c(OC)cc23)c(C(C)=O)cc1OC
[out] 204 µM

[in] Same for N#Cc1cc(-c2cc3ccccc3o2)oc1N
[out] 4.34 µM

[in] Same for O=c1cc(NCC(O)CN2CCCC2)n(Cc2ccccc2)c(=O)n1Cc1ccccc1 (centres undefined)
[out] > 100 µM

[in] Same for COc1ccc(-c2nc3ccccn3c2/C=C/C(=O)c2cc(OC)c(OC)c(OC)c2)cc1OC
[out] 7.38 µM

[in] Same for CCCC(CCC)NCC(O)c1cc(-c2ccc(C(F)(F)F)cc2)nc(C(F)(F)F)c1 (centres undefined)
[out] 1.55 µM

###

- Test system: DU-145 prostate
- experiment summary: NCI tumour cell line growth inhibition, 48 h
Task for the reader: assign each of the following compounds its reported GI50.

[in] Find GI50 (DU-145 prostate) for the entry COc1ccc(/C=C/c2c(C(=O)/C=C/c3ccccc3)c(C)nc3ccccc23)cc1
[out] 1.68 µM

[in] Same for NS(=O)(=O)c1ccc(-c2ccc3c(NC(=O)C4CC4)n[nH]c3c2)cc1
[out] > 25 µM

[in] Same for CCCC(CCC)NCC(O)c1cc(-c2ccc(C(F)(F)F)cc2)nc(C(F)(F)F)c1 (stereo not given)
[out] 1.94 µM

[in] Same for COc1cc2oc(-c3ccc(O)cc3)c(OC)c(=O)c2c(O)c1OC
[out] 18.3 µM

[in] Same for COc1ccc(C(=O)c2cc(OC)c(OC)c(OC)c2)cc1/C=C/C(=O)c1ccc(F)cc1
[out] 7.72 µM

[in] Same for CC(C)c1ccc(-c2cc(-c3cn[nH]c3-c3ccccn3)ccn2)cc1
[out] 16 µM

[in] Same for Cc1ccc(NC(=O)c2cccc(C(C)(C)C#N)c2)cc1Nc1ccc2ncn(C)c(=O)c2c1
[out] 5.66 µM

[in] Same for COc1ccc2[nH]c3c4[nH]c5ccc(OC)cc5c4c4c(c3c2c1)C(=O)NC4=O
[out] > 15.1 µM

[in] Same for Cc1cc2ncnn2cc1Nc1ncc2c(n1)n(C1CCOCC1)c(=O)n2C
[out] 6.92 µM

[in] Same for N#Cc1cc(-c2cc3ccccc3o2)oc1N
[out] 4.4 µM

Source listed as PubChem BioAssay (NCI).
